FYI, the data here is from ChEMBL document CHEMBL1128526.

- tested-target: UniProt:P28702
- Sequence (P28702 whole entry): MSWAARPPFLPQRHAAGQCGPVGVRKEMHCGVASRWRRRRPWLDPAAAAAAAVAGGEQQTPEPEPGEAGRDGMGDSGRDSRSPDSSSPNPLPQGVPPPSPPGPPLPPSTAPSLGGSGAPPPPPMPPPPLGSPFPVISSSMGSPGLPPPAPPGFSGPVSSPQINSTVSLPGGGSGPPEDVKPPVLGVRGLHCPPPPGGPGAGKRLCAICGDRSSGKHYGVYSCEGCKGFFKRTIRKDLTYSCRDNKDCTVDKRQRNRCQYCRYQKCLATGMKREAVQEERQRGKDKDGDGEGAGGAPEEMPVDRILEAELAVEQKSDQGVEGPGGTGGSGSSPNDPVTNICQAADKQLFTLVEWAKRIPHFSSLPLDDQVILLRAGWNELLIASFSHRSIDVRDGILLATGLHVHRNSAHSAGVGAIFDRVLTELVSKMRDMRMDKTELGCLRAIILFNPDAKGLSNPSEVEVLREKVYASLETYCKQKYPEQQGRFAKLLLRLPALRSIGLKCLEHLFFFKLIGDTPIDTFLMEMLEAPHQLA
- measurement-protocol: Effective concentrations against Retinoic acid receptor RXR-beta
log10(EC50) overview
parameter: log10(EC50) (log10 of the value in nM)

C=C(c1ccc(C(=O)O)s1)c1cc2c(cc1C)C(C)(C)CCC2(C)C :: 1.52
CC1(C)CCC(C)(C)c2cc(Oc3ccc(C(=O)O)cc3)ccc21 :: 3.28
CC1(C)CCC(C)(C)c2cc(Cc3ccc(C(=O)O)cc3)ccc21 :: 3.43
C/C=C(/c1ccc(C(=O)O)cc1)c1ccc2c(c1)C(C)(C)CCC2(C)C :: 2.20
Cc1cc2c(cc1C(=O)c1ccc(C(=O)O)s1)C(C)(C)CCC2(C)C :: 3.00

---

- tested-target: Retinoic acid receptor RXR-gamma (Homo sapiens)
- Sequence (P48443 whole entry): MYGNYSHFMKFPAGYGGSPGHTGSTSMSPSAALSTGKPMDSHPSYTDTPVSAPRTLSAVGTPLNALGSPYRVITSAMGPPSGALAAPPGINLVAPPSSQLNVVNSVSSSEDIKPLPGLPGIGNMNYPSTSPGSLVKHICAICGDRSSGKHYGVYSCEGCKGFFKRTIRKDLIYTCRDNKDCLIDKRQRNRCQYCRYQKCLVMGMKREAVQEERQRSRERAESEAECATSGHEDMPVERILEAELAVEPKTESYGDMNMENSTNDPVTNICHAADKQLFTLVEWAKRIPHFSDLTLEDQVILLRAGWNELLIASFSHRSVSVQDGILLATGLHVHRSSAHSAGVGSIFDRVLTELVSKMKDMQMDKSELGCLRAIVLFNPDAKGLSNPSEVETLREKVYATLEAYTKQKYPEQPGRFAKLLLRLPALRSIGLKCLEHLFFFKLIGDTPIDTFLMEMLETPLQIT
- measurement-protocol: Effective concentrations against Retinoic acid receptor RXR-gamma
Hi! Could you tag entries with EC50 below 500 nM as rule met, and those at or above as rule not met? Much appreciated.

C=C(c1ccc(C(=O)O)s1)c1cc2c(cc1C)C(C)(C)CCC2(C)C :: rule not met
CC1(C)CCC(C)(C)c2cc(Cc3ccc(C(=O)O)cc3)ccc21 :: rule not met
Cc1cc2c(cc1C(=O)c1ccc(C(=O)O)s1)C(C)(C)CCC2(C)C :: rule met
C/C=C(/c1ccc(C(=O)O)cc1)c1ccc2c(c1)C(C)(C)CCC2(C)C :: rule met
CC(/C=C/C1(c2cc3c(cc2C)C(C)(C)CCC3(C)C)OCCO1)=C\C(=O)O :: rule not met
CC1(C)CCC(C)(C)c2cc(Oc3ccc(C(=O)O)cc3)ccc21 :: rule not met

---

- tested-target: Retinoic acid receptor RXR-beta (Homo sapiens, UniProt P28702)
- Sequence (P28702 whole entry): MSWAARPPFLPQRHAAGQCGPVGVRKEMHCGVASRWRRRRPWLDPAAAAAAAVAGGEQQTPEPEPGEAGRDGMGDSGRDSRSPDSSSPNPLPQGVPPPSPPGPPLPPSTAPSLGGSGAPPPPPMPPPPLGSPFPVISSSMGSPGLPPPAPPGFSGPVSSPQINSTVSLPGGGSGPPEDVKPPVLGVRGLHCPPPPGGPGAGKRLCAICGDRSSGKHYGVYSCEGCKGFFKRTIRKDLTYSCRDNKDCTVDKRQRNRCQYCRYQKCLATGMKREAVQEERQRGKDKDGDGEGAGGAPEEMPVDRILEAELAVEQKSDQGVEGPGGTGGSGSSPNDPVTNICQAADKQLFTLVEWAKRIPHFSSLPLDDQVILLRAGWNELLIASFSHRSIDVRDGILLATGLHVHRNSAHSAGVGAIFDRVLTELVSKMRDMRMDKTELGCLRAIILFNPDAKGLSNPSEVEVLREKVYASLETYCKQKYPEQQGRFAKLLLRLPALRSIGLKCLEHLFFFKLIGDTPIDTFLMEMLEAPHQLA
- measurement-protocol: Effective concentrations against Retinoid X receptor RXR beta
parameter: EC50 (nM)

CC(/C=C/C1(c2cc3c(cc2C)C(C)(C)CCC3(C)C)OCCO1)=C\C(=O)O :: 47
